System: Mycobacterium avium
assay_name: Antimycobacterial activity against Mycobacterium avium CNTC 330/88 after 14 days
Assay type: functional
reported_conditions: CNTC 330/88, 336 h
Please use MET for MIC under 100 µM and NOT MET for everything else, ties included.

> print(dat)
                                    molecule  answer.label
 1      O=C(N/N=C/NC(=O)c1cnccn1)c1cccc(F)c1       NOT MET
 2  CCn1cc(C(=O)O)c(=O)c2cc(F)c(N3CCNCC3)cc21 [NORFLOXACIN]       NOT MET
 3  CCn1cc(C(=O)O)c(=O)c2cc(F)c(N3CCN(/C=N/NC(=O)c4ccc(F)cc4)CC3)cc21       NOT MET
 4  CCn1cc(C(=O)O)c(=O)c2cc(F)c(N3CCN(/C=N/NC(=O)c4ccc(C(F)(F)F)cc4)CC3)cc21       NOT MET
 5             NC(=O)c1cnccn1 [PYRAZINAMIDE]       NOT MET
 6  O=C(N/N=C/NC(=O)c1cnccn1)c1ccc(C(F)(F)F)cc1       NOT MET
 7  O=C(N/N=C/Nc1ccc(C(=O)O)c(O)c1)c1ccc(C(F)(F)F)cc1           MET
 8    O=C(O)c1ccc(N/C=N/NC(=O)c2ccccc2F)cc1O           MET
 9  O=C(N/N=C/N1CCN(c2cc3c(cc2F)c(=O)c(C(=O)O)cn3C2CC2)CC1)c1ccc(F)cc1           MET
10  O=C(N/N=C/N1CCN(c2cc3c(cc2F)c(=O)c(C(=O)O)cn3C2CC2)CC1)c1cccc(C(F)(F)F)c1       NOT MET
11  O=C(N/N=C/Nc1ccc(C(=O)O)c(O)c1)c1ccc(F)cc1           MET
12  Nc1ccc(C(=O)O)c(O)c1 [AMINOSALICYLIC ACID]           MET
13               NNC(=O)c1ccncc1 [ISONIAZID]       NOT MET
14  O=C(N/N=C/N1CCN(c2cc3c(cc2F)c(=O)c(C(=O)O)cn3C2CC2)CC1)c1ccc(C(F)(F)F)cc1           MET
15  CCn1cc(C(=O)O)c(=O)c2cc(F)c(N3CCN(/C=N/NC(=O)c4cccc(F)c4)CC3)cc21       NOT MET
16  O=C(N/N=C/Nc1ccc(C(=O)O)c(O)c1)c1cccc(C(F)(F)F)c1       NOT MET
17  O=C(O)c1cn(C2CC2)c2cc(N3CCNCC3)c(F)cc2c1=O [CIPROFLOXACIN]           MET
18  O=C(N/N=C/N1CCN(c2cc3c(cc2F)c(=O)c(C(=O)O)cn3C2CC2)CC1)c1cccc(F)c1       NOT MET
19  O=C(N/N=C/Nc1ccc(C(=O)O)c(O)c1)c1cccc(F)c1           MET

* * *

assay_name: Metabolic stability in rat plasma assessed as parent compound remaining after 96 hrs by HPLC analysis
Type: ADME, cell-free
reported_conditions: read-out: Stability
experimental_readout: remaining at 96 h (%)

> print(dat)
                               entry.smiles  reported
1  O=C(N/N=C/N1CCN(c2cc3c(cc2F)c(=O)c(C(=O)O)cn3C2CC2)CC1)c1ccc(F)cc1        82

* * *

assay_name: Hydrolytic stability of the compound in aqueous buffer assessed as half life at pH 5 after 48 hrs by HPLC analysis
Assay type: physicochemical
experimental_readout: half-life (h)

> print(dat)
                               entry.smiles  experimental.readout  reported
1  O=C(N/N=C/N1CCN(c2cc3c(cc2F)c(=O)c(C(=O)O)cn3C2CC2)CC1)c1ccc(F)cc1             half-life      11.8

* * *

System: PBMC
assay_name: Cytotoxicity against human PBMC measured after overnight incubation by MTT assay
Assay type: cell-based
experimental_readout: IC50

> print(dat)
                               entry.smiles  reported
1  CCn1cc(C(=O)O)c(=O)c2cc(F)c(N3CCN(/C=N/NC(=O)c4ccc(F)cc4)CC3)cc21  > 331 µM
2  O=C(N/N=C/N1CCN(c2cc3c(cc2F)c(=O)c(C(=O)O)cn3C2CC2)CC1)c1ccc(F)cc1  > 763 µM
3      O=C(N/N=C/NC(=O)c1cnccn1)c1cccc(F)c1  > 305 µM
4  O=C(N/N=C/N1CCN(c2cc3c(cc2F)c(=O)c(C(=O)O)cn3C2CC2)CC1)c1cccc(F)c1  > 305 µM
5  O=C(N/N=C/N1CCN(c2cc3c(cc2F)c(=O)c(C(=O)O)cn3C2CC2)CC1)c1cccc(C(F)(F)F)c1  > 322 µM
6  CCn1cc(C(=O)O)c(=O)c2cc(F)c(N3CCN(/C=N/NC(=O)c4ccc(C(F)(F)F)cc4)CC3)cc21    262 µM
7  O=C(N/N=C/Nc1ccc(C(=O)O)c(O)c1)c1cccc(F)c1    934 µM
8                           NNC(=O)c1ccncc1   4670 µM

* * *

Below: a set of entries, each annotated with reported MIC.
Test system: Mycobacterium kansasii
assay_name: Antimycobacterial activity against Mycobacterium kansasii CNTC My 235/80 after 14 days
Type: functional
reported_conditions: CNTC My 235/80, 336 h
experimental_readout: MIC (µM)

> print(dat)
                                    molecule  inequality.operator  reported
 1                      Nc1ccc(C(=O)O)c(O)c1                    =      1000
 2  CCn1cc(C(=O)O)c(=O)c2cc(F)c(N3CCN(/C=N/NC(=O)c4ccc(C(F)(F)F)cc4)CC3)cc21                    =         4
 3  O=C(N/N=C/N1CCN(c2cc3c(cc2F)c(=O)c(C(=O)O)cn3C2CC2)CC1)c1cccc(F)c1                    =         4
 4             NC(=O)c1cnccn1 [PYRAZINAMIDE]                    >      1000
 5                           NNC(=O)c1ccncc1                    >       250
 6  O=C(N/N=C/N1CCN(c2cc3c(cc2F)c(=O)c(C(=O)O)cn3C2CC2)CC1)c1cccc(C(F)(F)F)c1                    =         2
 7  CCn1cc(C(=O)O)c(=O)c2cc(F)c(N3CCN(/C=N/NC(=O)c4cccc(F)c4)CC3)cc21                    =        32
 8      O=C(N/N=C/NC(=O)c1cnccn1)c1cccc(F)c1                    =       250
 9  O=C(O)c1cn(C2CC2)c2cc(N3CCNCC3)c(F)cc2c1=O                    =         2
10  O=C(N/N=C/Nc1ccc(C(=O)O)c(O)c1)c1cccc(F)c1                    =      62.5
11  O=C(N/N=C/N1CCN(c2cc3c(cc2F)c(=O)c(C(=O)O)cn3C2CC2)CC1)c1ccc(C(F)(F)F)cc1                    =         2
12    O=C(O)c1ccc(N/C=N/NC(=O)c2ccccc2F)cc1O                    =        32
13  O=C(N/N=C/Nc1ccc(C(=O)O)c(O)c1)c1ccc(F)cc1                    =      62.5
14  CCn1cc(C(=O)O)c(=O)c2cc(F)c(N3CCN(/C=N/NC(=O)c4ccc(F)cc4)CC3)cc21                    =        32

* * *

Test system: Mycobacterium kansasii
assay_name: Antimycobacterial activity against Mycobacterium kansasii CNTC 6509/96 after 7 days
Assay type: functional
reported_conditions: CNTC 6509/96, 168 h
experimental_readout: MIC (µM)

> print(dat)
                               entry.smiles             system.name  unit.symbol  reported
1  O=C(N/N=C/Nc1ccc(C(=O)O)c(O)c1)c1cccc(F)c1  Mycobacterium kansasii           µM        32
2                           NNC(=O)c1ccncc1  Mycobacterium kansasii           µM         2
3  O=C(N/N=C/N1CCN(c2cc3c(cc2F)c(=O)c(C(=O)O)cn3C2CC2)CC1)c1ccc(C(F)(F)F)cc1  Mycobacterium kansasii           µM         1
4  O=C(N/N=C/N1CCN(c2cc3c(cc2F)c(=O)c(C(=O)O)cn3C2CC2)CC1)c1ccc(F)cc1  Mycobacterium kansasii           µM         8
5  O=C(N/N=C/Nc1ccc(C(=O)O)c(O)c1)c1ccc(F)cc1  Mycobacterium kansasii           µM        32
